Organism: Homo sapiens
Test: Selectivity ratio of EC50 for human mGluR4 to EC50 for human mGluR1
quantity_kind: Ratio EC50

{"columns": ["compound_string", "Ratio EC50"],
 "data": [
  ["COc1cc(NC(=O)c2occc2C)ccc1N1C(=O)c2cccc(F)c2C1=O", 13.4]
]}

P = Cc1ccoc1C(=O)Nc1ccc(N2C(=O)c3cccc(C)c3C2=O)nc1
Q = Cc1ccoc1C(=O)Nc1ccc(N2C(=O)c3ccccc3C2=O)c2ccccc12
R = COc1cc(NC(=O)c2occc2C)ccc1N1C(=O)c2cccc(Cl)c2C1=O
S = Cc1ccoc1C(=O)Nc1ccc(N2C(=O)c3cccc(F)c3C2=O)cc1
Lookup: List items by Ratio EC50 in falling order. // list labels; follow requested order
Found: P, R, Q, S

1 = Cc1cc(N2C(=O)c3ccccc3C2=O)ccc1NC(=O)c1occc1C
2 = COc1cc(NC(=O)c2occc2C)ccc1N1C(=O)c2cccc(C)c2C1=O
Lookup: From the recorded data, which exceeds the other in Ratio EC50: 1 or 2 ? Mark your answer with the label of the selected entry.
Found: 1
(1: 40.6, 2: 18)

---

Molecular target: Metabotropic glutamate receptor 4 (Homo sapiens)
Sequence (Q14833 whole entry): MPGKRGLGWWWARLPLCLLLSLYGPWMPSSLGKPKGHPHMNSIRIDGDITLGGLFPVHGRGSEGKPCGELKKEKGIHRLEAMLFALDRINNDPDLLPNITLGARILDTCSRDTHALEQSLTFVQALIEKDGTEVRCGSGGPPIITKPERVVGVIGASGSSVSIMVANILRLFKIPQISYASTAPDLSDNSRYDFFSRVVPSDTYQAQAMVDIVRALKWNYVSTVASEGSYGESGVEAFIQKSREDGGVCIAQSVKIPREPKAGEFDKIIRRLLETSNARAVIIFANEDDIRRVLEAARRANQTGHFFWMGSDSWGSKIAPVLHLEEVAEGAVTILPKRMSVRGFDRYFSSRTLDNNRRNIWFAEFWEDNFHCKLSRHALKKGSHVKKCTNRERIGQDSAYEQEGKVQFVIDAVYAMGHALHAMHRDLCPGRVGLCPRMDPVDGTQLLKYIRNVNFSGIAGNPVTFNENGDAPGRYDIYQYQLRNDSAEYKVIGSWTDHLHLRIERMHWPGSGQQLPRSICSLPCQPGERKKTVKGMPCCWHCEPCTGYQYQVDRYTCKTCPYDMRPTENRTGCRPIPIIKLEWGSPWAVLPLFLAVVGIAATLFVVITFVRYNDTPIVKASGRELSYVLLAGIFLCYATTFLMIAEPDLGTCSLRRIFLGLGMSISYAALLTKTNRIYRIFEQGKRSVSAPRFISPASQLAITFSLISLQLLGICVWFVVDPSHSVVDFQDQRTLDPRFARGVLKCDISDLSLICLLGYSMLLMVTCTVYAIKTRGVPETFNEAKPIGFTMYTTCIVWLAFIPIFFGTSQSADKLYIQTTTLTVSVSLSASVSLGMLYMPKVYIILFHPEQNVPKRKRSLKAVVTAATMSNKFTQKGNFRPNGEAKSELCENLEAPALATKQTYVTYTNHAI
Assay: Positive allosteric modulation of human mGluR4 by calcium mobilization assay
quantity_kind: EC50 (nM)

{"columns": ["compound_string", "quantity_kind", "measured_value"],
 "data": [
  ["Cc1ccoc1C(=O)Nc1ccc(N2C(=O)c3cccc(Cl)c3C2=O)c(C(F)(F)F)c1", "EC50", 2470]
]}

a = Cc1ccoc1C(=O)Nc1ccc(N2C(=O)c3cccc(C)c3C2=O)nc1
b = Cc1cc(N2C(=O)c3ccccc3C2=O)ccc1NC(=O)c1occc1C
Lookup: Which value of EC50 is greater, the one for a or the one for b ? # respond with the chosen item's label
Found: a
(a: 5000 nM, b: 609 nM)

---

Target: Metabotropic glutamate receptor 4 (Homo sapiens)
Test: Positive allosteric modulation of human mGluR4 by calcium mobilization assay relative to PHCCC
Type: functional
quantity_kind: %max (%)

Answered cases to consult:
{"columns": ["compound_string", "value_unit", "%max"],
 "data": [
  ["Cc1cc(NC(=O)c2occc2C)ccc1N1C(=O)c2cccc(Cl)c2C1=O", "%", 127],
  ["Cc1ccoc1C(=O)Nc1cnc(N2C(=O)c3ccccc3C2=O)nc1", "%", 23],
  ["Cc1cc(NC(=O)c2occc2C)ccc1N1C(=O)c2ccccc2C1=O", "%", 75],
  ["Cc1ccoc1C(=O)Nc1ccc(N2C(=O)c3cccc(F)c3C2=O)cc1", "%", 34],
  ["Cc1ccoc1C(=O)Nc1ccc(N2C(=O)c3cccc(Cl)c3C2=O)nc1", "%", 44]
]}

1 = Cc1ccoc1C(=O)Nc1ccc(N2C(=O)c3ccccc3C2=O)c(C(F)(F)F)c1
2 = Cc1ccoc1C(=O)Nc1ccc(N2C(=O)c3ccccc3C2=O)c2ccccc12
Lookup: Select the item whose %max value is smaller, choosing between 1 and 2 . Indicate your choice by writing its label.
Found: 2

---

Molecular target: Metabotropic glutamate receptor 1 (Homo sapiens)
Sequence (Q13255 19-1194 limits assumed): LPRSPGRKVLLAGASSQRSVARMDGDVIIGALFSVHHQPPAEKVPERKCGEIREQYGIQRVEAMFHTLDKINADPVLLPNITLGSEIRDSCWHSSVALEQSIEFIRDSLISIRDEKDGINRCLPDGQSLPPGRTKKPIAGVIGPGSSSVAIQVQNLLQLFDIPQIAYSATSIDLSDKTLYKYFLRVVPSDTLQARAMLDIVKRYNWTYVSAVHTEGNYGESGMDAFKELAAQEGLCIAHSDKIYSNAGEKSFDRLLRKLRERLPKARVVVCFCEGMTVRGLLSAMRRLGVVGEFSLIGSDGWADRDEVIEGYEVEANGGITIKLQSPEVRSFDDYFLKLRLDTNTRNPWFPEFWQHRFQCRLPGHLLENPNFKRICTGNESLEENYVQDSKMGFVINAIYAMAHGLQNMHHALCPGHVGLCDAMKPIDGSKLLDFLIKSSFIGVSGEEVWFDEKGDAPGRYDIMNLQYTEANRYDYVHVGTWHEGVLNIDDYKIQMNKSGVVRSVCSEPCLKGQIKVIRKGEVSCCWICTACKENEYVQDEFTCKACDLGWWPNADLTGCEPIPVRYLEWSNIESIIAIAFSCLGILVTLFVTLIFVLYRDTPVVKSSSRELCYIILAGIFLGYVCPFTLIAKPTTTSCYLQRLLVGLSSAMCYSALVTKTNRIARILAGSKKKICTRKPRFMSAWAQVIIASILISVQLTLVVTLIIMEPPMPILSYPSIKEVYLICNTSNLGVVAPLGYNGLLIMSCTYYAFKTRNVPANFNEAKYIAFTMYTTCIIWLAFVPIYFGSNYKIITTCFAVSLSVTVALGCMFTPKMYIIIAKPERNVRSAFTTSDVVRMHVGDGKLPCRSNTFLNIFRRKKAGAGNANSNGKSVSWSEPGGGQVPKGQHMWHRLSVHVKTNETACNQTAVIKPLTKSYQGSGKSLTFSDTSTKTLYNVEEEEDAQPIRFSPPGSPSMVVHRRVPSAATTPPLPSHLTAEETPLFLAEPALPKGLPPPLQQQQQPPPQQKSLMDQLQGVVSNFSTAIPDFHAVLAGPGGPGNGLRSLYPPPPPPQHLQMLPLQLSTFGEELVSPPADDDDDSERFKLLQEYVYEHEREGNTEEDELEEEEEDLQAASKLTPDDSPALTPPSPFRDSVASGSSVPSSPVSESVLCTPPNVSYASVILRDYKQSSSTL
Assay: Positive allosteric modulation of human mGluR1 by calcium mobilization assay relative to control
Assay type: functional
quantity_kind: %max (%)

{"columns": ["compound_string", "%max / %"],
 "data": [
  ["Cc1ccoc1C(=O)Nc1ccc(N2C(=O)c3cccc(C)c3C2=O)c(C(F)(F)F)c1", 117],
  ["Cc1ccoc1C(=O)Nc1cnc(N2C(=O)c3ccccc3C2=O)nc1", 89],
  ["Cc1ccoc1C(=O)Nc1ccc(N2C(=O)c3cccc(F)c3C2=O)cc1", 96],
  ["Cc1ccoc1C(=O)Nc1ccc(N2C(=O)c3ccccc3C2=O)nc1", 80],
  ["Cc1ccoc1C(=O)Nc1cnc(N2C(=O)c3cccc(Cl)c3C2=O)nc1", 84],
  ["Cc1cc(NC(=O)c2occc2C)ccc1N1C(=O)c2cccc(C)c2C1=O", 100],
  ["Cc1ccoc1C(=O)Nc1ccc(N2C(=O)c3cccc(C)c3C2=O)cc1", 108],
  ["Cc1ccoc1C(=O)Nc1ccc(N2C(=O)c3cccc(Cl)c3C2=O)nc1", 91],
  ["Cc1ccoc1C(=O)Nc1ccc(N2C(=O)c3cccc(C)c3C2=O)c(F)c1", 107],
  ["Cc1ccoc1C(=O)Nc1ccc(N2C(=O)c3ccccc3C2=O)cc1", 82]
]}

// data source = ChEMBL document CHEMBL3632577
